- System: HCV replicon with a D168E mutation in a 1a-H77 background
- protocolSummary: transient replicon assay, D168E mutation in 1a-H77 background
- Format: cell-based, hepatitis C virus (genotype 1a-H77)
- statedConditions: Hepatitis C virus, read-out: EC50 in a transient replicon assay with a D168E mutation in a 1a-H77 background
Quick reference: EC50 of the listed items.

Take a look at these entries with their results.
| smiles | EC50 |
| --- | --- |
| CC(C)(C)OC(=O)N[C@H]1CCCCC/C=C\[C@@H]2C[C@@]2(C(=O)NS(=O)(=O)C2(C)CC2)NC(=O)[C@@H]2C[C@@H](Oc3nc4c(F)cccc4nc3C(F)(F)F)CN2C1=O | 3 to 20 nM |
| CCc1nc2cccc(F)c2nc1O[C@@H]1C[C@H]2C(=O)N[C@]3(C(=O)NS(=O)(=O)C4CC4)C[C@H]3/C=C\CCCCC[C@H](NC(=O)c3noc(C)c3C)C(=O)N2C1 | < 3 nM |
| Cc1nc2ccc(F)cc2nc1O[C@@H]1C[C@H]2C(=O)N[C@]3(C(=O)NS(=O)(=O)C4(C)CC4)C[C@H]3/C=C\CCCCC[C@H](NC(=O)c3noc(C)c3C)C(=O)N2C1 | < 3 nM |
| Cc1cc(C(=O)N[C@H]2CCCCC/C=C\[C@@H]3C[C@@]3(C(=O)NS(=O)(=O)C3(C)CC3)NC(=O)[C@@H]3C[C@@H](Oc4nc5cc(F)ccc5nc4C)CN3C2=O)no1 | 3 to 20 nM |

Report EC50 for CCc1nc2ccc(F)cc2nc1O[C@@H]1C[C@H]2C(=O)N[C@]3(C(=O)NS(=O)(=O)C4(C)CC4)C[C@H]3/C=C\CCCCC[C@H](NC(=O)OC(C)(C)C)C(=O)N2C1 please.
3 to 20 nM

Param item = CC(C)(C)OC(=O)N[C@H]1CCCCC/C=C\[C@@H]2C[C@@]2(C(=O)NS(=O)(=O)C2(C)CC2)NC(=O)[C@@H]2C[C@@H](Oc3nc4cc(F)ccc4nc3C(F)(F)F)CN2C1=O ; retrieve measured EC50.
3 to 20 nM

###

- System: HCV replicon with a R155K mutation in a 1a-H77 background
- protocolSummary: transient replicon assay, R155K mutation in 1a-H77 background
- Format: cell-based, hepatitis C virus (genotype 1a-H77)
- statedConditions: Hepatitis C virus, read-out: EC50 in a transient replicon assay with a R155K mutation in a 1a-H77 background
assayReadout: EC50

Example cases with answers are listed next.
| smiles | EC50 |
| --- | --- |
| Cc1cc(C(=O)N[C@H]2CCCCC/C=C\[C@@H]3C[C@@]3(C(=O)NS(=O)(=O)C3(C)CC3)NC(=O)[C@@H]3C[C@@H](Oc4nc5c(F)cccc5nc4C(F)(F)F)CN3C2=O)no1 | < 1 nM |
| CC(C)(C)OC(=O)N[C@H]1CCCCC/C=C\[C@@H]2C[C@@]2(C(=O)NS(=O)(=O)C2CC2)NC(=O)[C@@H]2C[C@@H](Oc3nc4c(F)cccc4nc3C(F)(F)F)CN2C1=O | < 1 nM |
| Cc1cc(C(=O)N[C@H]2CCCCC/C=C\[C@@H]3C[C@@]3(C(=O)NS(=O)(=O)C3CC3)NC(=O)[C@@H]3C[C@@H](Oc4nc5cc(F)ccc5nc4C)CN3C2=O)no1 | 1 to 10 nM |
| Cc1ccsc1C(=O)N[C@H]1CCCCC/C=C\[C@@H]2C[C@@]2(C(=O)NS(=O)(=O)C2CC2)NC(=O)[C@@H]2C[C@@H](Oc3nc4ccccc4nc3C(F)(F)F)CN2C1=O | < 1 nM |
| CCc1nc2cccc(F)c2nc1O[C@@H]1C[C@H]2C(=O)N[C@]3(C(=O)NS(=O)(=O)C4CC4)C[C@H]3/C=C\CCCCC[C@H](NC(=O)c3ccon3)C(=O)N2C1 | 1 to 10 nM |

Data request, read-out EC50, for Cc1nc2c(Br)cc(F)cc2nc1O[C@@H]1C[C@H]2C(=O)N[C@]3(C(=O)NS(=O)(=O)C4(C)CC4)C[C@H]3/C=C\CCCCC[C@H](NC(=O)c3ccon3)C(=O)N2C1
< 1 nM

GET /values?readout=EC50&item= Cc1cc(C(=O)N[C@H]2CCCCC/C=C\[C@@H]3C[C@@]3(C(=O)NS(=O)(=O)C3CC3)NC(=O)[C@@H]3C[C@@H](Oc4nc5cc(F)ccc5nc4C(C)(F)F)CN3C2=O)no1
< 1 nM

Item under review: CCc1nc2ccc(F)cc2nc1O[C@@H]1C[C@H]2C(=O)N[C@]3(C(=O)NS(=O)(=O)C4CC4)C[C@H]3/C=C\CCCCC[C@H](NC(=O)c3noc(C)c3C)C(=O)N2C1 . Reported EC50?
1 to 10 nM

Could you share which EC50 value was measured for Cc1cc(C(=O)N[C@H]2CCCCC/C=C\[C@@H]3C[C@@]3(C(=O)NS(=O)(=O)C3CC3)NC(=O)[C@@H]3C[C@@H](Oc4nc5ccccc5nc4C(F)(F)F)CN3C2=O)[nH]n1 ?
10 to 25 nM

EC50 for Cc1cc(C(=O)N[C@H]2CCCCC/C=C\[C@@H]3C[C@@]3(C(=O)NS(=O)(=O)C3(C)CC3)NC(=O)[C@@H]3C[C@@H](Oc4nc5cc(F)ccc5nc4C)CN3C2=O)no1 ?
1 to 10 nM

###

- protocolSummary: dog PK experiment
- statedConditions: in vivo; dog, dosed at 3 mg/kg
Consider the following compounds and their measured AUC readings.
Dear colleague, please return just the value in µg·h/mL, with no unit written.

Example entries begin here.
| smiles | AUC [µg·h/mL] |
| --- | --- |
| Cc1cc(C(=O)N[C@H]2CCCCC/C=C\[C@@H]3C[C@@]3(C(=O)NS(=O)(=O)C3(C)CC3)NC(=O)[C@@H]3C[C@@H](Oc4nc5cc(F)ccc5nc4C)CN3C2=O)no1 | 201 |
| Cc1cc(C(=O)N[C@H]2CCCCC/C=C\[C@@H]3C[C@@]3(C(=O)NS(=O)(=O)C3CC3)NC(=O)[C@@H]3C[C@@H](Oc4nc5cc(F)ccc5nc4C(C)(F)F)CN3C2=O)no1 | 63 |
| Cc1cc(C(=O)N[C@H]2CCCCC/C=C\[C@@H]3C[C@@]3(C(=O)NS(=O)(=O)C3CC3)NC(=O)[C@@H]3C[C@@H](Oc4nc5ccccc5nc4C(C)(F)F)CN3C2=O)no1 | 4.5 |

Which AUC is listed for Cc1cc(C(=O)N[C@H]2CCCCC/C=C\[C@@H]3C[C@@]3(C(=O)NS(=O)(=O)C3CC3)NC(=O)[C@@H]3C[C@@H](Oc4nc5ccccc5nc4C(F)(F)F)CN3C2=O)no1 ?
27

Suppose we examine the compound Cc1cc(C(=O)N[C@H]2CCCCC/C=C\[C@@H]3C[C@@]3(C(=O)NS(=O)(=O)C3(C)CC3)NC(=O)[C@@H]3C[C@@H](Oc4nc5cc(F)ccc5nc4C(F)(F)F)CN3C2=O)no1 ; what AUC value has been reported?
141

###

- System: HCV replicon with a D168E mutation in a 1a-H77 background
- protocolSummary: transient replicon assay, D168E mutation in 1a-H77 background
- Type: cell-based, hepatitis C virus (genotype 1a-H77)
- statedConditions: Hepatitis C virus, read-out: EC50 in a transient replicon assay with a D168E mutation in a 1a-H77 background
assayReadout: EC50

| smiles | targetOrSystem | EC50 |
| --- | --- | --- |
| CCc1nc2cccc(F)c2nc1O[C@@H]1C[C@H]2C(=O)N[C@]3(C(=O)NS(=O)(=O)C4(C)CC4)C[C@H]3/C=C\CCCCC[C@H](NC(=O)OC(C)(C)C)C(=O)N2C1 | HCV replicon with a D168E mutation in a 1a-H77 background | 20 to 50 nM |
| Cc1cc(C(=O)N[C@H]2CCCCC/C=C\[C@@H]3C[C@@]3(C(=O)NS(=O)(=O)C3CC3)NC(=O)[C@@H]3C[C@@H](Oc4nc5c(F)cccc5nc4C)CN3C2=O)no1 | HCV replicon with a D168E mutation in a 1a-H77 background | 20 to 50 nM |
| CCc1nc2ccc(F)cc2nc1O[C@@H]1C[C@H]2C(=O)N[C@]3(C(=O)NS(=O)(=O)C4CC4)C[C@H]3/C=C\CCCCC[C@H](NC(=O)OC(C)(C)C)C(=O)N2C1 | HCV replicon with a D168E mutation in a 1a-H77 background | 3 to 20 nM |
| CC1(S(=O)(=O)NC(=O)[C@@]23C[C@H]2/C=C\CCCCC[C@H](NC(=O)c2ccon2)C(=O)N2C[C@H](Oc4nc5cc(F)ccc5nc4C(F)(F)F)C[C@H]2C(=O)N3)CC1 | HCV replicon with a D168E mutation in a 1a-H77 background | < 3 nM |
| CC(C)(C)OC(=O)N[C@H]1CCCCC/C=C\[C@@H]2C[C@@]2(C(=O)NS(=O)(=O)C2CC2)NC(=O)[C@@H]2C[C@@H](Oc3nc4cc(F)ccc4nc3C(F)(F)F)CN2C1=O | HCV replicon with a D168E mutation in a 1a-H77 background | 3 to 20 nM |
| Cc1cc(C(=O)N[C@H]2CCCCC/C=C\[C@@H]3C[C@@]3(C(=O)NS(=O)(=O)C3CC3)NC(=O)[C@@H]3C[C@@H](Oc4nc5cc(F)ccc5nc4C(C)(F)F)CN3C2=O)no1 | HCV replicon with a D168E mutation in a 1a-H77 background | < 3 nM |
| Cc1cc(C(=O)N[C@H]2CCCCC/C=C\[C@@H]3C[C@@]3(C(=O)NS(=O)(=O)C3(C)CC3)NC(=O)[C@@H]3C[C@@H](Oc4nc5ccccc5nc4C(F)(F)F)CN3C2=O)no1 | HCV replicon with a D168E mutation in a 1a-H77 background | 3 to 20 nM |
| Cc1nc2c(Br)cc(F)cc2nc1O[C@@H]1C[C@H]2C(=O)N[C@]3(C(=O)NS(=O)(=O)C4(C)CC4)C[C@H]3/C=C\CCCCC[C@H](NC(=O)c3noc(C)c3C)C(=O)N2C1 | HCV replicon with a D168E mutation in a 1a-H77 background | 3 to 20 nM |

What does the data say about its EC50? Entry: Cc1cc(C(=O)N[C@H]2CCCCC/C=C\[C@@H]3C[C@@]3(C(=O)NS(=O)(=O)C3CC3)NC(=O)[C@@H]3C[C@@H](Oc4nc5ccccc5nc4C(F)(F)F)CN3C2=O)no1
< 3 nM

Endpoint output: EC50 of Cc1cc(C(=O)N[C@H]2CCCCC/C=C\[C@@H]3C[C@@]3(C(=O)NS(=O)(=O)C3CC3)NC(=O)[C@@H]3C[C@@H](Oc4nc5cc(F)ccc5nc4C(F)(F)F)CN3C2=O)no1 . Value?
< 3 nM

Can you share its EC50? I mean this molecule: Cc1onc(C(=O)N[C@H]2CCCCC/C=C\[C@@H]3C[C@@]3(C(=O)NS(=O)(=O)C3(C)CC3)NC(=O)[C@@H]3C[C@@H](Oc4nc5ccccc5nc4C(C)(F)F)CN3C2=O)c1C
< 3 nM

Hello, the source for this data is patent US9493506B2, in case you need it.
